The values you see were collected from patent US5266596A.

# EXPERIMENT: Acute toxicity (LD50) in mouse
# EXPERIMENTAL_PARAMETERS: in vivo, ip, intraperitoneal
RECORDED_ENDPOINT: LD50

[[record]]
molecule = "N[C@H](C(=O)O)[C@H](O)c1ccc(O)c(O)c1 (relative stereo) [active ingredient]"
reported_value = "~10000 mg/kg"

